Data origin: the NIST ThermoML archive (doi:10.1021/je201334p)

Assay: refractive index (Na D-line) (dimensionless)
Conditions: 298.15 K; 101 kPa; Liquid; Standard Abbe refractometry
Property: refractive index; scope: individual compounds
Lab note: jot the number down without any unit.

{"columns": ["compound", "metric.name", "recorded.measurement"],
 "data": [
  ["CCCCCCn1cc[n+](C)c1.N#CN=C=[N-] [1-hexyl-3-methylimidazolium dicyanamide]", "refractive index", 1.50415],
  ["CCOS(=O)(=O)[O-].CCc1cccc[n+]1CC [1,2-diethylpyridinium ethylsulfate]", "refractive index", 1.5135],
  ["CCCC[N+]1(C)CCCC1.O=S(=O)([O-])C(F)(F)F [1-butyl-1-methylpyrrolidinium trifluoromethanesulfonate]", "refractive index", 1.43289],
  ["CCCC[N+]1(C)CCCC1.N#CN=C=[N-] [1-butyl-1-methylpyrrolidinium dicyanamide]", "refractive index", 1.49681],
  ["CCCCn1cc[n+](C)c1.N#CN=C=[N-] [1-butyl-3-methylimidazolium dicyanamide]", "refractive index", 1.50893],
  ["CCCCn1cc[n+](C)c1.O=S(=O)([O-])C(F)(F)F [1-butyl-3-methylimidazolium trifluoromethanesulfonate]", "refractive index", 1.43755],
  ["CCCC[n+]1cccc(C)c1.O=S(=O)([O-])C(F)(F)F [1-butyl-3-methylpyridinium trifluoromethanesulfonate]", "refractive index", 1.46155]
]}

Continue with the next compound.
Query: Endpoint output: refractive index of COS(=O)(=O)[O-].C[n+]1ccccc1 [1-methylpyridinium methylsulfate] . Value?
Reply: 1.5134
